Hello, the source for this data is paper PMC4997885, in case you need it.

tested_system: M2 (muscarinic subtype 2 acetylcholine receptor) (Homo sapiens)
Construct: human recombinant receptor
Sequence (P08172 whole entry): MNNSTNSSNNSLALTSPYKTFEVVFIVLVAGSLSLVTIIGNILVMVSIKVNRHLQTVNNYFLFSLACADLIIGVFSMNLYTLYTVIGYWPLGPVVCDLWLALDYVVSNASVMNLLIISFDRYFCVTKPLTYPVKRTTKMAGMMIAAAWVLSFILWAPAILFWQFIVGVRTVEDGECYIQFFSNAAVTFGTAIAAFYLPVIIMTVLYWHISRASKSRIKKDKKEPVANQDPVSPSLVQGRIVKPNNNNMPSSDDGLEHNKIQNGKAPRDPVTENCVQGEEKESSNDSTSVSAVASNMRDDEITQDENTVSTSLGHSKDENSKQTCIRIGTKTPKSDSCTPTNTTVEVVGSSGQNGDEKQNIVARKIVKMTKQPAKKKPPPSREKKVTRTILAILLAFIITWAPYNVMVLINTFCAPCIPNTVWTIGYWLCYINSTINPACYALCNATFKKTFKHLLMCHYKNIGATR
protocol_details: functional M2 agonist assay
protocol_conditions: agonist mode; […] separate tests; read-out: EC50 or IC50
pEC50: −log10 of the molar value.
quantity_name: pEC50

Look up pEC50: CN(C)c1cc(CNCC(C)(C)C)c(O)c2c1C[C@H]1C[C@H]3[C@H](N(C)C)C(=O)C(C(N)=O)=C(O)[C@@]3(O)C(=O)C1=C2O [omadacycline] < 4.52
